tested target: P2Y purinoceptor 2 (Homo sapiens, UniProt P41231)
Sequence (P41231 whole entry): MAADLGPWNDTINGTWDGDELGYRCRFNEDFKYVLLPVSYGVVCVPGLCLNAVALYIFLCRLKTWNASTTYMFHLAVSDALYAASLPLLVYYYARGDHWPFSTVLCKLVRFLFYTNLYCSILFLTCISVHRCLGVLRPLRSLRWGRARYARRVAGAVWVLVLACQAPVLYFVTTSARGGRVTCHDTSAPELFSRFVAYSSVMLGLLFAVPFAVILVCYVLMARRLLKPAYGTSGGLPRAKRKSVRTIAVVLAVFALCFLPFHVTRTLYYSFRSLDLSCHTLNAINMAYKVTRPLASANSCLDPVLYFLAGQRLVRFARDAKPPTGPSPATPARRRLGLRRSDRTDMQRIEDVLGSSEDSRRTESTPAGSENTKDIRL
experiment summary: Agonist activity by measuring inositol phosphate accumulation in 1321N1 human astrocytoma cells stably expressing human P2Y purinoceptor 2
pEC50: −log10 of the molar value.
observation type: pEC50

> print(dat)
                                   molecule  recorded.number
1  Nc1ncnc2c1ncn2[C@@H]1O[C@H](COP(=O)(O)OP(=O)(O)OP(=O)(O)O)[C@@H](O)[C@H]1O [ADENOSINE TRIPHOSPHATE]             7.07
2  Nc1nc(Cl)nc2c1ncn2[C@@H]1O[C@H](COP(=O)(O)OP(=O)(O)OP(=O)(O)O)[C@@H](O)[C@H]1O             5.64
3  Nc1ncnc2c1ncn2C1C(O)C(O)C2(COP(=O)(O)OP(=O)(O)OP(=O)(O)O)CC12 (stereo unspecified)             7.04
4  CNc1nc(Cl)nc2c1ncn2C1C(O)C(O)[C@@]2(COP(=O)(O)OP(=O)(O)OP(=O)(O)O)C[C@@H]12 (stereo partly specified)             5.08
5  CNc1ncnc2c1ncn2C1C(O)C(O)[C@@]2(COP(=O)(O)OP(=O)(O)OP(=O)(O)O)C[C@@H]12 (stereo partly specified)             6.71
6  Nc1nc(Cl)nc2c1ncn2C1C(O)C(O)[C@@]2(COP(=O)(O)OP(=O)(O)OP(=O)(O)O)C[C@@H]12 (stereo partly specified)             5.72
